molecular target: CaNbp2; assay: SPOT peptide array binding signal intensity (averaged, normalized) (arbitrary units (background-subtracted, floor 0; scale differs between SH3 domains)); higher = stronger binding of the SH3 domain to the peptide
Reported SPOT peptide array binding signal intensity values are given for each entry in this list.
// response body must contain only the number

Here's what some known entries look like.
[
  {
    "binder": "VPKEPAPAPPPEPDM",
    "assay.value": 37
  },
  {
    "binder": "VQKRKLPLPGSIASA",
    "assay.value": 70
  }
]

## Input I'd like to know its SPOT peptide array binding signal intensity. The binder in question is LLIRWLILMPLVGSR
## Output 1390
